test system: Enterococcus faecalis; test: Antibacterial activity against Enterococcus faecalis MGH-2 EF1-1 by micro broth method; assay type: functional
Assay readout: MIC (µg/mL)

CC(=O)NC[C@H]1CN(c2cc(F)c(N3CCCOCC3)c(F)c2)C(=O)O1: 1
C#Cc1cn(C[C@H]2CN(c3cc(F)c(N4CCCOCC4)c(F)c3)C(=O)O2)nn1: 2
CC(=O)NC[C@H]1CN(c2ccc(N3CCCOCC3)cc2)C(=O)O1: 16
CC(C)(C)OC(=O)NC[C@H]1CN(c2ccc(N3CCCOCC3)cc2)C(=O)O1: 32
CC(C)(C)OC(=O)NC[C@H]1CN(c2ccc(N3CCCOCC3)c(F)c2)C(=O)O1: 64
CNC(=O)[C@H]1CN(c2cc(F)c(N3CCCOCC3)c(F)c2F)C(=O)O1: 32

a. O=C1O[C@@H](Cn2ccnn2)CN1c1cc(F)c(N2CCCOCC2)c(F)c1
b. NC(=O)[C@H]1CN(c2cc(F)c(N3CCCOCC3)c(F)c2)C(=O)O1
Challenge: Consider a and b . Which of these has its MIC at a higher number? Write the label of whichever entry you select.
Response given: b
(b: 8 µg/mL, a: 2 µg/mL)

I. CCC(=O)NC[C@H]1CN(c2cc(F)c(N3CCCOCC3)c(F)c2)C(=O)O1
II. COC(=O)NC[C@H]1CN(c2ccc(N3CCCOCC3)cc2)C(=O)O1
III. O=C1O[C@@H](Cn2ccnn2)CN1c1ccc(N2CCCOCC2)cc1
Challenge: Parameters: sort_field (MIC), sort_dir (desc). Lab note: final answer is the ordered label list.
Response given: III, II, I

---

system: Streptococcus pyogenes; experiment: Antibacterial activity against Streptococcus pyogenes C-203 by micro broth method; type: functional
Assay readout: MIC (µg/mL)

CNC(=O)[C@H]1CN(c2ccc(N3CCCOCC3)c(F)c2)C(=O)O1: 8
COC(=O)NC[C@H]1CN(c2ccc(N3CCCOCC3)cc2)C(=O)O1: 8
CC(=O)NC[C@H]1CN(c2ccc(N3CCCOCC3)cc2)C(=O)O1: 8

---

test system: Enterococcus faecalis; assay: Antibacterial activity against Enterococcus faecalis MGH-2 EF1-1 by micro broth method; type: functional
Assay readout: MIC

Examples with their reported MIC follow.
C[Si](C)(C)C#Cc1cn(C[C@H]2CN(c3cc(F)c(N4CCCOCC4)c(F)c3)C(=O)O2)nn1: > 32 µg/mL
Cl.NC[C@H]1CN(c2ccc(N3CCCOCC3)c(F)c2)C(=O)O1: > 64 µg/mL
O=C1O[C@@H](CO)CN1c1ccc(N2CCCOCC2)cc1: > 64 µg/mL

Continue with the compound presented below.
Documented MIC of `CNC(=O)[C@H]1CN(c2ccc(N3CCCOCC3)c(F)c2)C(=O)O1` : 16 µg/mL
